Data credit: patent EP4375293A1

target: SARS-CoV-2 Omicron BA.1 RBD (Omicron_BA.1_RBD-AviHis) (SARS-CoV-2 (Omicron BA.1 variant)); experiment: BLI, biotinylated RBD, mass transport model fit
Known Kd of a selection of binders
Include the unit right after the number.

Ma28H11 (VHH, Monomeric VHH; also called M28H11) VHH: QVQLVESGGGLVQPGGSLRLSCATSGLTLDHYAIGWFLQAPGKEREGVACVSDDERSLYAPSVMGRFSISRDNAKKTFYLEMNSLKPEDTGVYYCASGPVVPGTLCRIPTVLGYDDWGQGTQVTVSS
30 nM
Ma28D01 (VHH, Monomeric VHH) VHH: QVQLVESGGGLVQPGGSLRLSCVVSELGLDYYQIGWFRQAPGKEREGVSCFRSSDEIRYYADSVKGRFTTFRDNAGTTVYLQMNSLKPEDTGVYYCAVAPQTYYHGTWYGECAAAGMDSWGKGTQVTVSS
0.2 nM
Ma16B06 (VHH, Monomeric VHH; also called VHH Ma16B06) VHH: QVQLVESGGGLVRTGGSLRLSCAASGSILQIWAMKWYRQAPGLQREWIATIPNSGEPFYASSVEGRFTGSRENEETVYLYLNNLEPEDTAVYYCEVNEGVPVREYWGQGTQVTVSS
0.04 nM

Then this binder:
Reported Kd ( Ma28F04 (VHH, Monomeric VHH) VHH: QVQLVESGGGLVQPGGSLRLSCVVSDLGLDYYQIGWFRQAPGKEREGVSCFRSSDEIRYYADPVKGRFTTFRDNAGTTVYLQMNSLKPEDTGVYYCAVAPQTYYHGTWYGECAAAGMDSWGKGTLVTVSS ) = 0.15 nM
